Listing of recorded GFP response relative to DMSO by entry.
PROTOCOL NOTES: LAP4-GFP expression modulators in yeast, confirmation, cell-based, cherry picks, flow cytometry, mother/daughter gates (AID 2271);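 note: ratio of sample to DMSO plate mean so 100% equals DMSO level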
MEASUREMENT CONTEXT: S. cerevisiae LAP4-GFP strain, 3 h, measured here: mother cell gate response, at 10 µM, stronger effect = higher value, 100 means same as DMSO control
Give the value, in units of %, as a plain number.

STRUCTURE SMILES	MEASURED ENDPOINT	MEASURED RESULT
COc1cccc(N=Cc2nc(-c3ccccc3)oc2OC(C)=O)c1	GFP response relative to DMSO	113
CCN1/C(=C/c2ccc3cc(C)ccc3[n+]2CC)Sc2ccc3sccc3c21	GFP response relative to DMSO	287
Oc1c(CN2CCN(c3ccccc3)CC2)cc(Br)c2cccnc12	GFP response relative to DMSO	231
COCCN(CCOC)S(=O)(=O)c1ccc(C(=O)Nc2nnc(C)o2)cc1	GFP response relative to DMSO	98.4

GFP response relative to DMSO for `Cc1cc(C)c(S(=O)(=O)ON2C(=O)c3ccccc3C2=O)cc1C` is 252

GFP response relative to DMSO for `COc1ccc(NC(=O)CCc2nc(-c3ccccc3F)no2)cc1` is 106

GFP response relative to DMSO for `CCc1ccccc1OCc1nnc(N)s1` is 97.3

GFP response relative to DMSO for `CC(C)c1nnc(NC(=O)c2nc(S(=O)(=O)Cc3ccccc3)ncc2Cl)s1` is 100

GFP response relative to DMSO for `CCNc1nc(-c2ccc(Cl)cc2)cs1` is 96.2

GFP response relative to DMSO for `COc1cc(/C=C2\C(=O)ON=C2c2ccccc2)cc(Br)c1O` is 115

GFP response relative to DMSO for `O=C(O)C1CCN(S(=O)(=O)c2ccc(Oc3ccccc3)cc2)CC1` is 96.5

* * *

PROTOCOL NOTES: RPL19A-GFP modulators, yeast TOR pathway, confirmation, cell-based, S. cerevisiae, flow cytometry, cherry picks, mother/daughter gates (AID 2270)
MEASUREMENT CONTEXT: S. cerevisiae RPL19A-GFP strain, 3 h, at 10 µM, stronger effect = lower value, 100 = same GFP as DMSO wells
Listing of recorded GFP response vs DMSO by entry.
Give the value, in units of %, as a plain number.

Some entries whose results are on file:
COMPOUND	GFP response vs DMSO / %
O=c1cc(-c2c(F)c(F)c(F)c(F)c2F)oc2c(F)c(F)c(F)c(F)c12	105
O=[N+]([O-])c1ccc(Cl)cc1Sc1ccccn1	105
COC(=O)CCS(=O)(=O)c1nc(-c2ccccc2)cc(C(F)(F)F)n1	100
CCOC(=O)c1sc(Nc2nc3c(OC)cccc3s2)nc1C	103
O=C1C(=O)N(Cc2ccccc2)C(c2cccc(O)c2)/C1=C(\O)c1ccc2c(c1)OCCO2 (stereo unspecified)	100
COC(=O)Cn1nc(-c2ccccc2)c2cc(Cl)ccc21	101
CC(Oc1ccc(Cl)cc1)C(=O)NNC(=S)NC(=O)c1ccco1 (stereo unspecified)	99.6
Oc1c(C(Nc2cccc(C(F)(F)F)c2)c2ccncc2)ccc2cccnc12 (stereo unspecified)	105
N#C/C(=C\c1c(N(Cc2ccccc2)Cc2ccccc2)nc2ccccn2c1=O)C(N)=O	98.4
Cc1nn2c(N3CCCC3)cc(C(C)C)nc2c1-c1ccccc1	100

Query compound follows.
GFP response vs DMSO for CC(OC(=O)c1cccs1)C(=O)Nc1nc(-c2ccccc2)cs1 (stereo unspecified) is 98.7
